Data origin: paper PMC6515380

// reported ΔGbindo(expt) for each item listed
Test system: wtTel26 (DNA, G4) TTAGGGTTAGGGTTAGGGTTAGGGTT
Experiment: fluorescence titration
Conditions: 100 mM K+; 25 °C, pH 7; 0.2 μM ligand; ΔG obtained from experimentally determined Kd
// return numeric value only (unit: kcal/mol, not printed)

Consider the following illustrative entries.
Please tell me: ΔGbindo(expt) of `COc1ccc2cc3[n+](cc2c1OC)CCc1cc2c(cc1-3)OCO2` , system wtTel26 (DNA, G4) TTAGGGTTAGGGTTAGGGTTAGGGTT?
-7.82

And the next one, `COc1cc2c(cc1OC)-c1cc3ccc(OC)c(OC)c3c[n+]1CC2` ?
-8.41

---
Please tell me: ΔGbindo(expt) of `c1c2c(cc3c1OCO3)-c1cc3ccc4c(c3c[n+]1CC2)OCO4` , system wtTel26 (DNA, G4) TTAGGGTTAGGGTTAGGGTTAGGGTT?
-8.89

And the next one, `COc1cc2c(cc1OC)-c1cc3ccc4c(c3c[n+]1CC2)OCO4` ?
-10.70
